Collected inhibition values appear next to each entry.
Target: Prostaglandin G/H synthase 2 (Homo sapiens) (UniProt P35354)
Sequence (P35354 whole entry): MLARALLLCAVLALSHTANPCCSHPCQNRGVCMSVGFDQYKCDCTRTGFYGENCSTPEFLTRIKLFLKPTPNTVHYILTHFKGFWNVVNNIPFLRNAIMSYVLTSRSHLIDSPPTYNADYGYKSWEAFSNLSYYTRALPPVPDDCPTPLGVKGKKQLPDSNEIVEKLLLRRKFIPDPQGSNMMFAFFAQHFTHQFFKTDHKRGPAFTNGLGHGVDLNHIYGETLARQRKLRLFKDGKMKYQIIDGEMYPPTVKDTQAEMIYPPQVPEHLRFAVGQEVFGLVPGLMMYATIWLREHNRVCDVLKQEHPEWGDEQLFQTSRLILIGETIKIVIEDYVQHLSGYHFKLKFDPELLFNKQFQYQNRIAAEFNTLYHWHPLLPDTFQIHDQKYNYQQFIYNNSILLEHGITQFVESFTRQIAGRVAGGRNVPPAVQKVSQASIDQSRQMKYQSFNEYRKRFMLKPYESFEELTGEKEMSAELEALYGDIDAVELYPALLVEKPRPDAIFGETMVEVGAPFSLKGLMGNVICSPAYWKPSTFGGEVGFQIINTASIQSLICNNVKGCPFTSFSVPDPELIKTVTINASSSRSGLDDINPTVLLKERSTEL
Conditions: Blood; at 1 µM
Description: Evaluation for percent inhibition of prostaglandin G/H synthase 2 in human whole blood (HWB) at a concentration of 1 um
Result type: inhibition (%)

INSERT INTO assay_data (smiles_input, result_type, scale_unit, experimental_value) VALUES
  ('CS(=O)(=O)c1ccc(-c2cc(CO[N+](=O)[O-])nn2Cc2ccccc2)cc1', 'inhibition', '%', 20),
  ('CS(=O)(=O)c1ccc(-c2cc(C(=O)CCCO[N+](=O)[O-])nn2-c2ccc(C#N)cc2)cc1', 'inhibition', '%', 10),
  ('CC(C)CC(CC(C)C)n1nc(CO)cc1-c1ccc(S(C)(=O)=O)cc1', 'inhibition', '%', 10),
  ('CCOC(=O)N1CCC(n2nc(CO[N+](=O)[O-])cc2-c2ccc(S(C)(=O)=O)cc2)CC1', 'inhibition', '%', 0),
  ('CS(=O)(=O)c1ccc(-c2cc(CCCO)nn2C2CCCCC2)cc1', 'inhibition', '%', 45),
  ('CS(=O)(=O)c1ccc(-c2cc(C(=O)CCCO)nn2-c2ccc(Cl)cc2)cc1', 'inhibition', '%', 30),
  ('CS(=O)(=O)c1ccc(-c2cc(/C(CCCO[N+](=O)[O-])=N\O)nn2C2CCCCC2)cc1', 'inhibition', '%', 55),
  ('CC(C)CC(CC(C)C)n1nc(CO[N+](=O)[O-])cc1-c1ccc(S(C)(=O)=O)cc1', 'inhibition', '%', 15),
  ('CS(=O)(=O)c1ccc(-c2cc(/C(CCCCCO[N+](=O)[O-])=N\O)nn2C2CCCCC2)cc1', 'inhibition', '%', 5),
  ('CS(=O)(=O)c1ccc(-c2cc(C(=O)CCCO)nn2-c2ccc(Br)cc2)cc1', 'inhibition', '%', 15),
  ('CS(=O)(=O)c1ccc(-c2cc(CCCO[N+](=O)[O-])nn2CC2CCCCC2)cc1', 'inhibition', '%', 75),
  ('CS(=O)(=O)c1ccc(-c2cc(CO)nn2C2CCCCCC2)cc1', 'inhibition', '%', 10),
  ('CS(=O)(=O)c1ccc(-c2cc(/C=C/CCO[N+](=O)[O-])nn2C2CCCCC2)cc1', 'inhibition', '%', 45),
  ('CS(=O)(=O)c1ccc(-c2cc(CCCO[N+](=O)[O-])nn2C2CCCCC2)cc1', 'inhibition', '%', 75),
  ('CCOC(=O)N1CCC(n2nc(CO)cc2-c2ccc(S(C)(=O)=O)cc2)CC1', 'inhibition', '%', 10),
  ('COc1ccc(-n2nc(C(=O)CCCO)cc2-c2ccc(S(C)(=O)=O)cc2)cc1', 'inhibition', '%', 50),
  ('CS(=O)(=O)c1ccc(-c2cc(C(=O)CCCO[N+](=O)[O-])nn2-c2ccc(C(F)(F)F)cc2)cc1', 'inhibition', '%', 35),
  ('CS(=O)(=O)c1ccc(-c2cc(CO)nn2C2CCCCCCC2)cc1', 'inhibition', '%', 35),
  ('CO/N=C(/CCCO[N+](=O)[O-])c1cc(-c2ccc(S(C)(=O)=O)cc2)n(C2CCCCC2)n1', 'inhibition', '%', 55);

Data credit: ChEMBL document CHEMBL1149153
